Origin of the recorded values: PubChem BioAssay (NCI)

test system: 786-0 renal; assay: NCI tumour cell line growth inhibition, 48 h
observable: GI50

{"compound": "C[C@@H]1C[N+]2([O-])[C@H]3C4=CCC[C@@H]4CC[C@H]3[C@@]3(C)OC(=O)CC[C@]34CC[C@H]1[C@@H]42 (some centres undefined)", "assayTarget": "786-0 renal", "observable": "GI50", "result": "> 60 µM"}
{"compound": "O=C(Nc1ccc(CN2CCOCC2)cc1)c1ccc(-c2cc(Cl)ccc2Cl)o1", "assayTarget": "786-0 renal", "observable": "GI50", "result": "11.8 µM"}
{"compound": "O=C(Nc1cccc(-n2cc(-c3ccncc3)c(-c3ccc(Cl)c(O)c3)n2)c1)Nc1ccc(Cl)c(C(F)(F)F)c1", "assayTarget": "786-0 renal", "observable": "GI50", "result": "1.02 µM"}
{"compound": "Nc1nc2c(c3ncccc13)C(c1cccc(Br)c1)Cc1ncccc1-2 (centres undefined)", "assayTarget": "786-0 renal", "observable": "GI50", "result": "1.36 µM"}

Just so you know, measured GI50 for CCN1CCN(c2cc(C)nc(N(CCNc3ccnc4cc(Cl)ccc34)Cc3ccc4c(c3)OCO4)n2)CC1 came out at 1.49 µM

Just so you know, measured GI50 for CCOC(=O)[C@H]1O[C@@H]1C(=O)N[C@@H](CC(C)C)C(=O)NCCc1ccc(O)cc1 came out at > 100 µM

Just so you know, measured GI50 for COc1ccc(C(=O)c2cc(OC)c3c(c2)OCO3)cc1O came out at 0.933 µM

Just so you know, measured GI50 for NCCN.NCCN.[Cl-].[O]=[Os+2]=[O] came out at > 100 µM

Just so you know, measured GI50 for CC(=O)O[C@H]1CCC2(C)C(=CCC3C2CCC2(C)/C(=N/OC(=O)c4ccc(N(CCCl)CCCl)cc4)CCC32)C1 (some centres undefined) came out at 4.21 µM
